// values below are reported IC50
- Target desc: Porcine kidney DPP-IV (Sus scrofa, UniProt P22411)
- Construct: purchased Sigma-Aldrich; host or cells: porcine kidney (tissue-derived, as named)
- Sequence (P22411 whole entry): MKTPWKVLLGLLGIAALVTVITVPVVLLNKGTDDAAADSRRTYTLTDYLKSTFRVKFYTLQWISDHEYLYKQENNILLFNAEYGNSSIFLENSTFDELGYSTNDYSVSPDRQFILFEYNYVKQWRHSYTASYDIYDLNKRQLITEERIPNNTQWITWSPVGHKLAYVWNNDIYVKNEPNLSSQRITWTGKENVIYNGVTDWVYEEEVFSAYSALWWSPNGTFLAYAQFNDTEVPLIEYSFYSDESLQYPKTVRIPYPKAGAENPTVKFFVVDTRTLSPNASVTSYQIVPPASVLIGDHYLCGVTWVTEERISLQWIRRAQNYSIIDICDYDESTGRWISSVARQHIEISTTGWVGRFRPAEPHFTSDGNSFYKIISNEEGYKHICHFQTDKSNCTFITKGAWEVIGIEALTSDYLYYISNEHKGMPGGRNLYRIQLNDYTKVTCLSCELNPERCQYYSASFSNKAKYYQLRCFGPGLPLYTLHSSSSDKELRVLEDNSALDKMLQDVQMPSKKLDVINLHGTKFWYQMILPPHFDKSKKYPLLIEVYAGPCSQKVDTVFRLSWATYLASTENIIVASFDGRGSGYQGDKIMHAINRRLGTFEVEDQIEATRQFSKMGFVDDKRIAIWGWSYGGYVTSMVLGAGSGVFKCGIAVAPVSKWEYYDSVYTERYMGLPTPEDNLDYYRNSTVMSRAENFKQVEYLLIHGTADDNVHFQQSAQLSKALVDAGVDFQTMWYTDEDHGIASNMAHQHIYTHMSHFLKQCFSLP
- Protocol description: DPP-IV Glo Protease Assay (luminescence), DPP-IV inhibition
- Assay type: biochemical
- Stated conditions: pure compounds, concentration based on molecular mass; means ± SEM; read-out: IC50, DPP-IV inhibition

>  <Molecule>
Oc1cc(O)c2cc(O)c(-c3ccc(O)c(O)c3)[o+]c2c1 [Cyanidin, cyanidin]

>  <IC50>
1410 nM

$$$$
>  <Molecule>
OC[C@H]1O[C@@H](Oc2cc3c(O)cc(O)cc3[o+]c2-c2ccc(O)c(O)c2)[C@H](O)[C@@H](O)[C@@H]1O [Cyanidin-3-glucoside, cyanidin-3-glucoside]

>  <IC50>
420 nM

$$$$
>  <Molecule>
O=c1cc(-c2ccc(O)c(O)c2)oc2cc(O)cc(O)c12 [Luteolin, luteolin]

>  <IC50>
120 nM

$$$$
>  <Molecule>
O=c1c(-c2ccc(O)cc2)coc2cc(O)cc(O)c12 [Genistein, genistein]

>  <IC50>
480 nM

$$$$
>  <Molecule>
O=C(O)/C=C/c1ccc(O)c(O)c1 [Caffeic acid, caffeic acid]

>  <IC50>
3370 nM

$$$$
>  <Molecule>
Oc1ccc(/C=C/c2cc(O)cc(O)c2)cc1 [Resveratrol, resveratrol]

>  <IC50>
0.6 nM

$$$$
>  <Molecule>
O=c1cc(-c2ccccc2)oc2ccccc12 [Flavone, flavone]

>  <IC50>
170 nM

$$$$
>  <Molecule>
COc1ccc([C@@H]2CC(=O)c3c(O)cc(O)cc3O2)cc1O [Hesperetin, hesperetin]

>  <IC50>
280 nM

$$$$
>  <Molecule>
O=c1cc(-c2ccc(O)cc2)oc2cc(O)cc(O)c12 [Apigenin, apigenin]

>  <IC50>
140 nM

$$$$
>  <Molecule>
O=c1c(O)c(-c2ccc(O)c(O)c2)oc2cc(O)cc(O)c12 [Quercetin, quercetin]

>  <IC50>
2920 nM

$$$$
>  <Molecule>
O=C1C[C@@H](c2ccc(O)cc2)Oc2cc(O)cc(O)c21 [Naringenin, naringenin]

>  <IC50>
240 nM

$$$$
>  <Molecule>
O=C(O[C@@H]1Cc2c(O)cc(O)cc2O[C@@H]1c1cc(O)c(O)c(O)c1)c1cc(O)c(O)c(O)c1 [EGCG, epigallocatechin gallate]

>  <IC50>
10200 nM

$$$$
>  <Molecule>
O=C(O)c1cc(O)c(O)c(O)c1 [Gallic acid, gallic acid]

>  <IC50>
4650 nM

$$$$
>  <Molecule>
O=c1c(O)c(-c2ccc(O)cc2)oc2cc(O)cc(O)c12 [Kaempferol, kaempferol]

>  <IC50>
490 nM

$$$$
>  <Molecule>
C[C@@H]1O[C@@H](OC[C@H]2O[C@@H](Oc3cc(O)c4c(c3)O[C@H](c3ccc(O)c(O)c3)CC4=O)[C@H](O)[C@@H](O)[C@@H]2O)[C@H](O)[C@H](O)[C@H]1O [Eriocitrin, eriocitrin]

>  <IC50>
10400 nM

$$$$

* * *

- Target desc: Porcine kidney DPP-IV (Sus scrofa)
pKi: −log10 of the molar value.

>  <Molecule>
O=c1cc(-c2ccc(O)c(O)c2)oc2cc(O)cc(O)c12 [Luteolin, luteolin]

>  <Target desc>
Porcine kidney DPP-IV (Sus scrofa)

>  <pKi>
5.31

$$$$
